Origin of values: patent US7074789B2

Parameter 'readout' = pIC50; parameter 'system' = Hck-1 (Homo sapiens).
Sequence (P08631 whole entry): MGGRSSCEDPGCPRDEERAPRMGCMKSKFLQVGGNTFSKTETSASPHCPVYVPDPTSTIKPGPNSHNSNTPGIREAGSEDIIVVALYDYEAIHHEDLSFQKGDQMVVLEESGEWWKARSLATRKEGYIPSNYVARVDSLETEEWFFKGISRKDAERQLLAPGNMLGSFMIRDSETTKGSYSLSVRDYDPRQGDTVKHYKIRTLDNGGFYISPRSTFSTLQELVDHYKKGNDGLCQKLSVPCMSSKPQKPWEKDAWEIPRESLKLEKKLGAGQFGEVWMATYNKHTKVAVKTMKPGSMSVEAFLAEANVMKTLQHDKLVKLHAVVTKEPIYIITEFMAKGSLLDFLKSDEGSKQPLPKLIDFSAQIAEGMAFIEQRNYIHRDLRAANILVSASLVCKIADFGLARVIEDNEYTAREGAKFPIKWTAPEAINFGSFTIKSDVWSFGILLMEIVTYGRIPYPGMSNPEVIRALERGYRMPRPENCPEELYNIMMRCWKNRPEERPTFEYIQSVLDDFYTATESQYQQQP
pIC50: −log10 of the molar value.
assay.metric: pIC50

- COc1cc(Nc2ncnc(Nc3ccc(Br)cc3F)n2)cc(OC)c1OC [Compound 41]: < 5.00
- COc1cc(Nc2ncnc(-n3c(NCCc4ccccn4)nc4ccccc43)n2)cc(OC)c1OC [Compound 510]: < 5.04
- COc1cc(Nc2ncnc(N3c4ccccc4CC3C)n2)cc(OC)c1OC (centres unmarked) [Compound 610]: < 4.94
- COc1cc(Nc2ncnc(-n3c(Nc4cccc(C(=O)O)c4)nc4ccccc43)n2)cc(OC)c1OC [Compound 390]: < 5.06
- COc1ccc(Sc2ncnc(Nc3cc(OC)c(OC)c(OC)c3)n2)cc1 [Compound 175]: < 4.95
- COc1cc(Nc2ncnc(Nc3cc(OC)c(OC)c(OC)c3)n2)cc(OC)c1OC [Compound 76]: < 4.99
- COc1cc(Nc2ncnc(Nc3ccc4cn[nH]c4c3)n2)cc(OC)c1OC [Compound 70]: < 4.94
- COc1ccc(Nc2ncnc(-n3c(N)nc4ccccc43)n2)cc1 [Compound 656]: 4.98 to 5.14
- COc1cc(Nc2ncnc(-n3c(N)nc4cc([N+](=O)[O-])ccc43)n2)cc(OC)c1OC [Compound 294]: < 4.99
- COc1cc(Nc2ncnc(-n3c(NCc4cccc(Cl)c4)nc4ccccc43)n2)cc(OC)c1OC [Compound 949]: < 5.06
- COc1cc(Nc2ncnc(N(c3ccccc3)c3nc4ccccc4[nH]3)n2)cc(OC)c1OC [Compound 335]: < 5.02
- COc1ccc(Nc2ncnc(Nc3cc(OC)c(OC)c(OC)c3)n2)cc1O [Compound 931]: 5.22 to 6.00
- COc1cc(Nc2ncnc(N3CCc4ccccc43)n2)cc(OC)c1OC [Compound 184]: < 4.93
- COc1cc(Nc2ncnc(-n3ccc4cc(Cl)ccc43)n2)cc(OC)c1OC [Compound 198]: < 4.96
- COc1cc(Nc2ncnc(-n3c(NCc4ccc([N+](=O)[O-])cc4)nc4ccccc43)n2)cc(OC)c1OC [Compound 952]: 5.07 to 5.18
- COc1cc(Nc2ncnc(Nc3ccc(OCc4ccccc4)cc3)n2)cc(OC)c1OC [Compound 926]: < 5.01
- COc1cc(Nc2ncnc(Nc3ccc(F)c(Cl)c3)n2)cc(OC)c1OC [Compound 61]: < 4.96
- COc1cc(Nc2ncnc(-n3ncc4ccccc43)n2)cc(OC)c1OC [Compound 240]: < 4.92
- COc1cc(Nc2ncnc(Nc3ccc(C)c(N)c3)n2)cc(OC)c1OC [Compound 935]: 5.04 to 5.20
- COc1ccc(Nc2ncnc(Nc3ccc4[nH]ccc4c3)n2)cc1OC [Compound 115]: < 4.91
- COc1cc(Nc2ncnc(Nc3cccc(O)c3)n2)cc(OC)c1OC [Compound 78]: 5.19 to 5.97
- NC(=O)c1cccc(Nc2ncnc(-n3c(N)nc4ccccc43)n2)c1 [Compound 395]: < 4.89
- C#Cc1cccc(Nc2ncnc(Nc3cc(OC)c(OC)c(OC)c3)n2)c1 [Compound 74]: < 4.92
